# experimental details: molar heat capacity at constant pressure
# assay context: 298.15 K; 101.33 kPa; Liquid; Small sample (50 mg) DSC

- compound: "CCCCCCn1cc[n+](C)c1.N#CN=C=[N-] [1-hexyl-3-methylimidazolium dicyanamide]"
  molar heat capacity at constant pressure (J/K/mol): 534
- compound: "CCCCn1cc[n+](C)c1.N#CN=C=[N-] [1-butyl-3-methylimidazolium dicyanamide]"
  molar heat capacity at constant pressure (J/K/mol): 376
- compound: "CCOS(=O)(=O)[O-].CCc1cccc[n+]1CC [1,2-diethylpyridinium ethylsulfate]"
  molar heat capacity at constant pressure (J/K/mol): 412

###

# assay context: 288.15 K; 101 kPa; Liquid; Sing-around technique in a fixed-path interferometer

- compound: "CCCCCCn1cc[n+](C)c1.N#CN=C=[N-] [1-hexyl-3-methylimidazolium dicyanamide]"
  speed of sound [m/s]: 1713.4
- compound: "CCOS(=O)(=O)[O-].CCc1cccc[n+]1CC [1,2-diethylpyridinium ethylsulfate]"
  speed of sound [m/s]: 1774.5
- compound: "CCCC[n+]1cccc(C)c1.O=S(=O)([O-])C(F)(F)F [1-butyl-3-methylpyridinium trifluoromethanesulfonate]"
  speed of sound [m/s]: 1436.1
- compound: "COS(=O)(=O)[O-].C[n+]1ccccc1 [1-methylpyridinium methylsulfate]"
  speed of sound [m/s]: 1901.1

Origin of the recorded values: the NIST ThermoML archive (doi:10.1021/je201334p)
